experiment: Stability in cryopreserved hepatocytes, rat
Field: Trep Concentration (μM) 0 min. Provide a value for each of the molecules that follow.
One number for each entry, in µM.

Each molecule below has a recorded value; state its Trep Concentration (μM) 0 min.
1. CCCCC[C@H]1CC[C@@H]2[C@H]3Cc4cccc(OCC(=O)O)c4C[C@H]3C[C@H]2OC(=O)O1
2. CCCCCC(CCC1C(O)CC2Cc3c(cccc3OCC(=O)O)CC21)OC(=O)C1CCCN1 (stereo not shown)
3. CCCCCC(CCC1C(O)CC2Cc3c(cccc3OCC(=O)O)CC21)OCc1oc(=O)oc1C (stereo not shown)
4. CCCCCC(CCC1C(O)CC2Cc3c(cccc3OCC(=O)O)CC21)OC(=O)CCC(=O)O (stereo not shown)

Result:
1: 0.365; 2: 0.00925; 3: 0.327; 4: 0.0112
